# Tgt: High affinity nerve growth factor receptor (Homo sapiens, UniProt P04629)
# Sequence (P04629 whole entry, the tested form may be a part): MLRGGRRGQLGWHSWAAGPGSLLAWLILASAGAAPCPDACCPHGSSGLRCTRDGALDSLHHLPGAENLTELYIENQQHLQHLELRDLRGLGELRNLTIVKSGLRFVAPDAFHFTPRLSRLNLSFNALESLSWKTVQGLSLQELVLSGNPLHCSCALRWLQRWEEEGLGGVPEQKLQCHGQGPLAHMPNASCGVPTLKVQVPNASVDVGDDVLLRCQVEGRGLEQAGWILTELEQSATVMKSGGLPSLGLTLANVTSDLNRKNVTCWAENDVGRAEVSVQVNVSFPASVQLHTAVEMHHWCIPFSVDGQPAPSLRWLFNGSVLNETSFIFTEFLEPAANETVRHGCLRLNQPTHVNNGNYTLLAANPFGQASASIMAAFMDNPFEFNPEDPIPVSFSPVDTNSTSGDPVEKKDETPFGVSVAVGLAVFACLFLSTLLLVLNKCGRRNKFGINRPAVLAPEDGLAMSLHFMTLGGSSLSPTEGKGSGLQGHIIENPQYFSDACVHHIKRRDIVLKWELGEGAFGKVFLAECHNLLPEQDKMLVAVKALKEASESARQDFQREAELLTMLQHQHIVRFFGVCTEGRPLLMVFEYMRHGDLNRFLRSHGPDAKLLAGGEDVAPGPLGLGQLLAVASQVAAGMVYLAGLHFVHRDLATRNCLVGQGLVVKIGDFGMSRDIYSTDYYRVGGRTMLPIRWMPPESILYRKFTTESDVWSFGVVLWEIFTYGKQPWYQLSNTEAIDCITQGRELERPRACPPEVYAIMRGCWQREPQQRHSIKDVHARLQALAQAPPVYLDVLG
Listed below: IC50 values for each entry.
Output spec: scalar in nM, unitless text.

query_smiles=Cc1cn2cc(CNc3ncnc4ccc(N5CCC[C@@H]5c5cc(F)ccc5F)nc34)nc2s1 value_reported=13

Please look at the following molecule next.
In: Specify the recorded IC50 for CC(C)N(Cc1c[nH]c2ncccc12)C(=O)Nc1ccc(OC(F)(F)F)cc1 , system: High affinity nerve growth factor receptor (Homo sapiens, UniProt P04629).
Out: 11

---

# Assay comment: Plasma protein binding in rat
# Assay type: ADME, cell-free
# Assay conditions: read-out: PPB (converted)
Reported property: fraction unbound
Number only, no unit.

In: Provide measured fraction unbound value, entry: CC(C)(C)c1cc(NC(=O)Cn2cc(-c3ccc(-n4ccnc4)nc3)nn2)n(-c2cccnc2)n1
Out: 0.005

---

# Assay comment: Plasma concentration in Complete-Freunds adjuvant-induced Sprague-Dawley rat pain model at 100 mg/kg, po after 2 hrs
# Type: ADME, organism-based
# Design: dose 100 mg/kg, route oral
Reported property: concentration at 2 h (µM)
Output spec: scalar in µM, unitless text.

In: Provide measured concentration at 2 h value, entry: CC(C)(C)c1cc(NC(=O)Cn2cc(-c3ccc(-n4ccnc4)nc3)nn2)n(-c2cccnc2)n1
Out: 16

---

# Tgt: High affinity nerve growth factor receptor (Homo sapiens)
# Assay comment: Inhibition of purified TrkA cytoplasmic domain (unknown origin) by HTRF assay
Reported property: IC50 (nM)
Output spec: scalar in nM, unitless text.

Worked cases, IC50 given:
query_smiles=CN1CCN(c2ccc(Nc3ncnc4ccc(NCc5cccc(Cl)c5)nc34)cc2)CC1 reported_property=IC50 scale_unit=nM value_reported=11
query_smiles=CC(C)(C)c1cc(NC(=O)Cn2cc(-c3ccc(-n4ccnc4)nc3)nn2)n(-c2cccnc2)n1 reported_property=IC50 scale_unit=nM value_reported=9
query_smiles=Cc1cn2cc(CNc3ncnc4ccc(N5CCC[C@@H]5c5cc(F)ccc5F)nc34)nc2s1 reported_property=IC50 scale_unit=nM value_reported=1.5
query_smiles=Cc1cn(-c2ccc(-c3cn(CC(=O)Nc4cc(C5CC5)nn4-c4ccccc4)nn3)cc2)cn1 reported_property=IC50 scale_unit=nM value_reported=60

Please look at the following compound next.
In: Specify the recorded IC50 for c1cncc(CNc2ccc3ncnc(Nc4ccc(N5CCOCC5)cc4)c3n2)c1 , system: High affinity nerve growth factor receptor (Homo sapiens).
Out: 997

---

# Tested on: Plasma
# Assay comment: Plasma concentration in Sprague-Dawley rat Chung spinal nerve ligation model assessed as reversal of mechanical hypersensitivity at 10 mg/kg, po
# Type: ADME, organism-based
# Set-up: dose 10 mg/kg, route oral
# Assay conditions: in vivo
Reported property: concentration (nM)
Output spec: scalar in nM, unitless text.

In: Specify the recorded concentration for CC(C)(C)c1cc(NC(=O)Cn2cc(-c3ccc(-n4ccnc4)nc3)nn2)n(-c2cccnc2)n1 , system: Plasma.
Out: 1000

---

# Tested on: Plasma
# Assay comment: Plasma concentration in Sprague-Dawley rat Chung spinal nerve ligation model assessed as reversal of mechanical hypersensitivity at 30 mg/kg, po
# Assay type: ADME, organism-based
# Parameters: dose 30 mg/kg, route oral
# Assay conditions: in vivo
Reported property: concentration (µM)
Output spec: scalar in µM, unitless text.

In: Specify the recorded concentration for CC(C)(C)c1cc(NC(=O)Cn2cc(-c3ccc(-n4ccnc4)nc3)nn2)n(-c2cccnc2)n1 , system: Plasma.
Out: 6.7
